Exercise: for every item that follows, state its recorded Emax.
Target: human mAChR M1 (Homo sapiens)
Construct: host or cells: CHO-K1
Sequence (P11229 whole entry): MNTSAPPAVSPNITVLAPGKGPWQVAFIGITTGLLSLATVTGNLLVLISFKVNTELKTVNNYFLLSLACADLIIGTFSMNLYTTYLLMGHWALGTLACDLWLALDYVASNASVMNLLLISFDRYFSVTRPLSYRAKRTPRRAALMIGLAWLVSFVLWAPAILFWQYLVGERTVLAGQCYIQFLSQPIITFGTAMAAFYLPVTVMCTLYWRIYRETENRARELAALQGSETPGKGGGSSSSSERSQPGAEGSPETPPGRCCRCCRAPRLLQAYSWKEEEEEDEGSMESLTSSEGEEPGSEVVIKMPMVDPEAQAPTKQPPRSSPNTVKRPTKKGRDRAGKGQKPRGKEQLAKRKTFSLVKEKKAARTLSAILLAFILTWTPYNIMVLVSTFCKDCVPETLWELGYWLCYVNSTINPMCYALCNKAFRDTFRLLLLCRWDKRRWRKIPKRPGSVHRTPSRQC
Experiment: mAChR M1 cell-based functional assay (calcium mobilization, Fluo-4, FDSS)
Conditions: CHO-K1 cells stably expressing hM1; EC20 acetylcholine response; read-out: Human M1 Emax
Value expressed in %; do not type the unit.

Challenge: Lab note: need Emax with human mAChR M1 (Homo sapiens) for entry Cn1cc(-c2ccc(Cc3cc(C(=O)NC4CCOC(C)(C)C4)nc4c3ccn4C)cn2)cn1 (centres unmarked) , please look it up.
Response given: 87.9

Challenge: Lab note: need Emax with human mAChR M1 (Homo sapiens) for entry CC1CC(NC(=O)c2cc(Cc3ccc(-c4cscn4)cc3)c3ccn(C)c3n2)CC(C)O1 (centres unmarked) , please look it up.
Response given: 65.3

Challenge: Lab note: need Emax with human mAChR M1 (Homo sapiens) for entry Cn1ccc(-c2ccc(Cc3cc(C(=O)NCC4CCOC4)nc4sccc34)cn2)n1 (centres unmarked) , please look it up.
Response given: 59.4

Challenge: Lab note: need Emax with human mAChR M1 (Homo sapiens) for entry Cn1ccc2c(Cc3ccc(-c4cscn4)cc3)cc(C(=O)NC3CC4(COC4)C3)nc21 , please look it up.
Response given: 75.4

Challenge: Lab note: need Emax with human mAChR M1 (Homo sapiens) for entry COCCNC(=O)c1cc(Cc2ccc(-c3ccn(C)n3)cc2)c2ccsc2n1 , please look it up.
Response given: 62.8

Challenge: Lab note: need Emax with human mAChR M1 (Homo sapiens) for entry Cc1nc(-c2ccc(Cc3cc(C(=O)NC4CCOCC4(C)C)nc4sccc34)cc2)co1 (centres unmarked) , please look it up.
Response given: 62.3

Challenge: Lab note: need Emax with human mAChR M1 (Homo sapiens) for entry Cc1nc(-c2ccc(Cc3cc(C(=O)NCC4CCOCC4)nc4sccc34)cc2)co1 , please look it up.
Response given: 57.7

Challenge: Lab note: need Emax with human mAChR M1 (Homo sapiens) for entry CCn1ccc2c(Cc3ccc(-n4cccn4)cc3)cc(C(=O)N[C@H]3CCOC[C@@H]3O)nc21 , please look it up.
Response given: 64.7
